Experiment: APR_HepG2_CellLoss_24hr: Apredica 24-hour HepG2 Assay for Cell Loss (AID 2282908)
Conditions: high-content imaging
Activity calls are given as the source filed them. The calls were made as follows: active = hit-call score of the fitted dose curve at least 0.9, where 1 is the maximum; inactive = score below 0.9.
Assign a class; possible classes are 1 = active, -1 = inactive

| COMPOUND | CATEGORY |
| --- | --- |
| CC1COC(Cn2cncn2)(c2ccc(Oc3ccc(Cl)cc3)cc2Cl)O1 (stereo not given) | 1 |
| CCON=C(CC)C1=C(O)CC(c2c(C)cc(C)cc2C)CC1=O (stereo not given) | -1 |
| COc1nc(C)nc(NC(=O)NS(=O)(=O)c2ccccc2CCC(F)(F)F)n1 | -1 |
| CCOC(=O)C(Cl)Cc1cc(-n2nc(C)n(C(F)F)c2=O)c(F)cc1Cl (stereo not given) | -1 |
| CCOC(=O)CC(SP(=S)(OC)OC)C(=O)OCC (stereo not given) | -1 |

Input: Could you please tell me the result logged for Cc1ccc(-c2c(Cl)nc(C#N)n2S(=O)(=O)N(C)C)cc1 in this assay?
Output: -1

Input: Could you please tell me the result logged for CCCCNC(=O)n1c(NC(=O)OC)nc2ccccc21 in this assay?
Output: 1

Input: Could you please tell me the result logged for COC(=O)N(OC)c1ccccc1COc1ccn(-c2ccc(Cl)cc2)n1 in this assay?
Output: 1

Input: Could you please tell me the result logged for O=C(O)c1nc(Cl)ccc1Cl in this assay?
Output: -1

Input: Could you please tell me the result logged for OC(c1ccc(Cl)cc1)(c1cncnc1)c1ccccc1Cl (stereo not given) in this assay?
Output: 1

* * *

Assay: Tanguay_ZF_120hpf_TRUN_legacy: (Legacy) Oregon State University Tanguay Lab 120 Hour Post-fertilization zebrafish Assay for Truncated Body (AID 2283655)
Inconclusive results are not listed. Calls of active or inactive are those of the source. Rule for the calls: active = hit-call score of the fitted dose curve at least 0.9, where 1 is the maximum; inconclusive = response in the unintended direction; inactive = score below 0.9.
Assign a class; possible classes are true (active), false (inactive)

These recorded examples may help you get a feel for the data.
| COMPOUND | CATEGORY |
| --- | --- |
| CCOc1cc(Oc2ccc(C(F)(F)F)cc2Cl)ccc1[N+](=O)[O-] | false |
| COC(=O)C=C(C)OP(=O)(OC)OC | false |
| COC(=O)C(C)Oc1ccc(Oc2ccc(Cl)cc2Cl)cc1 (stereo not drawn) | false |

Input: Could you please tell me the result logged for CCCCOC(=O)c1ccccc1C(=O)OCCCC in this assay?
Output: false

* * *

Read-out: Ezrin (EZR), EZR (gene 7430)
Assay: LTEA_HepaRG_EZR: Life Technologies and Expression Analysis (LTEA) Assay for Ezrin (EZR) using HepaRG (AID 2283491)
Conditions: mRNA level, 48 h; actives raise or lower the signal
Calls of active or inactive are those of the source. How the source made its calls: active means hit-call score of the fitted dose curve at least 0.9, where 1 is the maximum; inactive means score below 0.9.
READOUT_LABEL: AC50

Example compounds with recorded AC50:
| COMPOUND | AC50 |
| --- | --- |
| C=CC1(C)OC(=O)N(c2cc(Cl)cc(Cl)c2)C1=O (stereo not given) | inactive |
| N#CC(CCc1ccc(Cl)cc1)(Cn1cncn1)c1ccccc1 (stereo not given) | 50 µM (active) |
| CNC(=O)ON=CC(C)(C)SC | inactive |
| CN(C)C(=S)SSC(=S)N(C)C | inactive |

Input: # AC50 lookup, item CCOc1cc(Oc2ccc(C(F)(F)F)cc2Cl)ccc1[N+](=O)[O-]
Output: inactive

Input: # AC50 lookup, item COc1ccc(C(c2ccc(OC)cc2)C(Cl)(Cl)Cl)cc1
Output: 79.8 µM (active)

* * *

Test: Tanguay_ZF_120hpf_PE_legacy: (Legacy) Oregon State University Tanguay Lab 120 Hour Post-fertilization zebrafish Assay for Pericardial Edema (AID 2283640)
Inconclusive results are not listed. Active and inactive are the calls of the source. How the source made its calls: active means hit-call score of the fitted dose curve at least 0.9, where 1 is the maximum; inconclusive means response in the unintended direction; inactive means score below 0.9.
READOUT_LABEL: AC50

Example compounds with recorded AC50:
| COMPOUND | MEAS_VALUE |
| --- | --- |
| C#CCOS(=O)OC1CCCCC1Oc1ccc(C(C)(C)C)cc1 (centres undefined) | inactive |
| COC(=O)c1ccccc1C(=O)OC | inactive |
| CC1=C(C(=O)Nc2ccccc2)SCCO1 | inactive |
| CC(C)(C)c1ccc(CSc2cnn(C(C)(C)C)c(=O)c2Cl)cc1 | inactive |
| Cc1ccc(-c2c(Cl)nc(C#N)n2S(=O)(=O)N(C)C)cc1 | inactive |

Input: # AC50 lookup, item Oc1ccccc1-c1ccccc1
Output: inactive

Input: # AC50 lookup, item N#Cc1nn(-c2c(Cl)cc(C(F)(F)F)cc2Cl)c(N)c1S(=O)C(F)(F)F (centres undefined)
Output: inactive

* * *

Assay: CCTE_Shafer_MEA_acute_burst_number: CCTE's Neural Acute Assay for Single-Electrode Bursts, Shafer Lab (AID 2284013)
Calls of active or inactive are those of the source. The calls were made as follows: active = hit-call score of the fitted dose curve at least 0.9, where 1 is the maximum; inactive = score below 0.9.
READOUT_LABEL: AC50

Example compounds with recorded AC50:
| COMPOUND | READOUT_LABEL | MEAS_VALUE |
| --- | --- | --- |
| COc1ccc(C(c2ccc(OC)cc2)C(Cl)(Cl)Cl)cc1 | AC50 | inactive |
| CCNc1nc(Cl)nc(NC(C)C)n1 | AC50 | inactive |
| CCOP(=S)(OCC)SCn1c(=O)oc2cc(Cl)ccc21 | AC50 | inactive |
| Cc1c(F)c(F)c(COC(=O)C2C(/C=C(\Cl)C(F)(F)F)C2(C)C)c(F)c1F (stereo unspecified) | AC50 | 0.226 µM (active) |
| COP(=S)(OC)Oc1nc(Cl)c(Cl)cc1Cl | AC50 | inactive |

Could you now look at the following compound, please?
Input: # AC50 lookup, item COC(=O)N(OC)c1ccccc1COc1ccn(-c2ccc(Cl)cc2)n1
Output: 0.0942 µM (active)

* * *

Assay: CCTE_Shafer_MEA_dev_active_electrodes_number: CCTE's Neural Network Formation Assay for Number of Active Electrodes, Shafer Lab (AID 2284040)
Inconclusive results are not listed. Calls of active or inactive are those of the source. The calls were made as follows: active = hit-call score of the fitted dose curve at least 0.9, where 1 is the maximum; inconclusive = response in the unintended direction; inactive = score below 0.9.
Assign a class; possible classes are active, inactive

These recorded examples may help you get a feel for the data.
| COMPOUND | CATEGORY |
| --- | --- |
| CNC(=O)ON=CC(C)(C)SC | inactive |
| C=CC1(C)OC(=O)N(c2cc(Cl)cc(Cl)c2)C1=O (stereo unspecified) | active |
| Cc1ccc(-c2c(Cl)nc(C#N)n2S(=O)(=O)N(C)C)cc1 | active |
| CCOc1cc(Oc2ccc(C(F)(F)F)cc2Cl)ccc1[N+](=O)[O-] | active |
| COP(=S)(OC)Oc1nc(Cl)c(Cl)cc1Cl | inactive |

Next compound, please.
Input: Could you please tell me the result logged for COc1ccc(C(c2ccc(OC)cc2)C(Cl)(Cl)Cl)cc1 in this assay?
Output: active

* * *

Read-out: Phosphatase and tensin (PTEN), PTEN (gene 5728)
Assay: LTEA_HepaRG_PTEN: Life Technologies and Expression Analysis (LTEA) Assay for Phosphatase and tensin (PTEN) using HepaRG (AID 2283523)
Conditions: mRNA level, 48 h; actives raise or lower the signal
The source made the active and inactive calls. The calls were made as follows: active = hit-call score of the fitted dose curve at least 0.9, where 1 is the maximum; inactive = score below 0.9.
Assign a class; possible classes are label 1 = active, label 0 = inactive

These recorded examples may help you get a feel for the data.
| COMPOUND | CATEGORY |
| --- | --- |
| C=CCC1=C(C)[C@@H](OC(=O)[C@@H]2[C@@H](C=C(C)C)C2(C)C)CC1=O | label 0 |
| N#CC(CCc1ccc(Cl)cc1)(Cn1cncn1)c1ccccc1 (centres undefined) | label 0 |
| CCOC(=O)CC(SP(=S)(OC)OC)C(=O)OCC (centres undefined) | label 0 |

Next compound, please.
Input: Could you please tell me the result logged for CCc1nn(C)c(C(=O)NCc2ccc(C(C)(C)C)cc2)c1Cl in this assay?
Output: label 1

* * *

Biological target: Bile acid receptor (Homo sapiens)
Test: NVS_NR_hFXR_Antagonist: NovaScreen (NVS) Nuclear Receptor Binding Assay for human Farnesoid X Receptor Antagonism (FXR) (AID 2283350)
Inconclusive results are not listed. Calls of active or inactive are those of the source. Rule for the calls: active = hit-call score of the fitted dose curve at least 0.9, where 1 is the maximum; inconclusive = response in the unintended direction; inactive = score below 0.9.
Assign a class; possible classes are active, inactive

| COMPOUND | TARGET_ENTITY | CATEGORY |
| --- | --- | --- |
| C#CCOS(=O)OC1CCCCC1Oc1ccc(C(C)(C)C)cc1 (stereo not given) | Bile acid receptor (Homo sapiens) | inactive |
| N#Cc1cc(Br)c(O)c(Br)c1 | Bile acid receptor (Homo sapiens) | inactive |

Input: Could you please tell me the result logged for CN(C)C(=S)SSC(=S)N(C)C in this assay?
Output: active

Input: Could you please tell me the result logged for COc1ccc(C(c2ccc(OC)cc2)C(Cl)(Cl)Cl)cc1 in this assay?
Output: inactive

Input: Could you please tell me the result logged for CC(C)C1(C)N=C(c2nc3ccccc3cc2C(=O)O)NC1=O (stereo not given) in this assay?
Output: inactive

* * *

Experiment: BSK_3C_VCAM1: BioMAP Diversity Plus: 3C Assay for Vascular cell adhesion molecule 1 (VCAM1) Biomarker Activity (AID 2282999)
Conditions: BioMAP 3C HUVEC, VCAM1 ELISA, cytokine-stimulated; actives raise or lower the signal
Calls of active or inactive are those of the source. The calls were made as follows: active = hit-call score of the fitted dose curve at least 0.9, where 1 is the maximum; inactive = score below 0.9.
Assign a class; possible classes are 1.0 = active, 0.0 = inactive

These recorded examples may help you get a feel for the data.
| COMPOUND | CATEGORY |
| --- | --- |
| CCCN(CCC)c1c([N+](=O)[O-])cc(S(N)(=O)=O)cc1[N+](=O)[O-] | 1.0 |
| CC(C)C1(C)N=C(c2nc3ccccc3cc2C(=O)O)NC1=O (stereo not drawn) | 0.0 |
| COc1nc(C)nc(NC(=O)NS(=O)(=O)c2ccccc2CCC(F)(F)F)n1 | 0.0 |
| CCOP(=S)(OCC)SCn1c(=O)oc2cc(Cl)ccc21 | 0.0 |

Input: Could you please tell me the result logged for COP(N)(=O)SC (stereo not drawn) in this assay?
Output: 0.0

Input: Could you please tell me the result logged for CCCCOC(=O)c1ccccc1C(=O)OCCCC in this assay?
Output: 0.0

Input: Could you please tell me the result logged for CNC(=S)S in this assay?
Output: 1.0
